# assay remarks: activity coefficient (dimensionless); of the first substance listed, at infinite dilution; xn = mol fraction of the nth substance listed
# measurement conditions: 354.05 K; Liquid; Chromatography; x1 = 0
experimental endpoint: activity coefficient
Write the value as a bare number.

So what's the measured activity coefficient for this one? CC(C)CO [2-methyl-1-propanol] + CCCC[N+](C)(C)C.O=S(=O)([N-]S(=O)(=O)C(F)(F)F)C(F)(F)F
2.23

// same read-out, input: C=CCCCCCCCCCC [1-dodecene] + CCCC[N+](C)(C)C.O=S(=O)([N-]S(=O)(=O)C(F)(F)F)C(F)(F)F
61.4

Further, for C=CCCCCCCCCC [1-undecene] + CCCC[N+](C)(C)C.O=S(=O)([N-]S(=O)(=O)C(F)(F)F)C(F)(F)F ?
45.8

Now consider CCCCCCCCC [nonane] + CCCC[N+](C)(C)C.O=S(=O)([N-]S(=O)(=O)C(F)(F)F)C(F)(F)F .
39

// repeat for c1ccccc1 [benzene] + CCCC[N+](C)(C)C.O=S(=O)([N-]S(=O)(=O)C(F)(F)F)C(F)(F)F and report
1.22

Also need CCCCCCC(=O)OC [methyl heptanoate] + CCCC[N+](C)(C)C.O=S(=O)([N-]S(=O)(=O)C(F)(F)F)C(F)(F)F , thanks.
3.01

Further, for C=CCCCCC [1-heptene] + CCCC[N+](C)(C)C.O=S(=O)([N-]S(=O)(=O)C(F)(F)F)C(F)(F)F ?
11.3

Measured values drawn from the NIST ThermoML archive (doi:10.1021/je050440b) for this set.
